The measurements presented in this section are drawn from the MegaScale stability set (Tsuboyama et al. 2023).

B1: 6NMW (parent)
chain: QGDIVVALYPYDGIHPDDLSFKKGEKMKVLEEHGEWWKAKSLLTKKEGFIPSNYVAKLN

Variants of: B1
Experiment: folding stability dG (cDNA display proteolysis); higher = more stable
Conditions: PBS, room temperature
observation_type: folding stability dG (kcal/mol)
A number alone suffices; assume kcal/mol.

Please review the following examples before continuing.
Query block: Give the measured folding stability dG for `D18V`
Result block: 3.08

Query block: Give the measured folding stability dG for `D3Q`
Result block: 4.27

Continuing:
Query block: Give the measured folding stability dG for `K38M`
Result block: 3.87

Query block: Give the measured folding stability dG for `K57Q`
Result block: 2.68

Query block: Give the measured folding stability dG for `L30T`
Result block: 2.04

Query block: Give the measured folding stability dG for `S52F`
Result block: 2.85

Query block: Give the measured folding stability dG for `Y11R`
Result block: 2.25

Query block: Give the measured folding stability dG for `S41W`
Result block: 0.288

Query block: Give the measured folding stability dG for `T44K`
Result block: 0.416
